# stated_conditions: in acetone, 321.05 K
metric_name: solubility (mole fraction)

                   item_smiles  measured
0  Cc1c(N)c(=O)n(-c2ccccc2)n1C      0.52

----------
# stated_conditions: in ethyl acetate, 311.05 K
metric_name: solubility (mole fraction)

                   item_smiles  measured
0  Cc1c(N)c(=O)n(-c2ccccc2)n1C      0.13

----------
# stated_conditions: in water, 299.05 K
metric_name: solubility (mole fraction)

                   item_smiles  measured
0  Cc1c(N)c(=O)n(-c2ccccc2)n1C      0.13

----------
# stated_conditions: in acetone, 338.35 K
metric_name: solubility (mole fraction)

>>> df
                   item_smiles  measured
0  Cc1c(N)c(=O)n(-c2ccccc2)n1C      0.62
